system: CAMK2A; settings: concentration: 1 μM, replicates: in singlicate; n = 1;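 also: KINOMEscan kinase panel screen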
OUTCOME_MEASURE: %Inh
Param answer (str): number followed by unit.

Examples with their reported %Inh follow.
[[record]]
molecule = "Cc1cccc(Nc2nc(N[C@H]3CCNC3)ncc2C(N)=O)c1.Cl"
value = "0%"

[[record]]
molecule = "O=C(Nc1cccc(Oc2ccc3nc(NC(=O)C4CC4)cn3n2)c1)c1ccccc1C(F)(F)F"
value = "100%"

[[record]]
molecule = "NCCCC(NC(=O)c1cc(Br)c(-c2ccnc3[nH]ccc23)s1)c1ccccc1.O=C(O)C(F)(F)F.O=C(O)C(F)(F)F (centres unmarked)"
value = "0%"

[[record]]
molecule = "CSc1cccc2c(-c3ccncn3)c(-c3ccc(F)cc3)nn12"
value = "0%"

[[record]]
molecule = "Nc1n[nH]c2cnc(-c3ccccc3)cc12"
value = "0%"


Would you be so kind as to report %Inh for each listed record?
1. COc1cc(Nc2nccc(N3CCC(NC(=O)c4cc5ccccc5s4)C3)n2)cc(OC)c1OC (centres unmarked)
2. CNC(=O)c1ccccc1Nc1nc(Nc2ccc(N3CCOCC3)cc2)ncc1Cl.Cl
3. CC(C)(C)c1ccc2nccc(Nc3cccc(O)c3)c2c1
4. Cl.Cl.NCC(NCc1ccc(-c2ccnc3[nH]ccc23)s1)c1ccccc1 (centres unmarked)
5. COc1cc(Nc2ncc3c(C)nc(-c4cc5ccccc5[nH]4)n3n2)cc(OC)c1OC
6. Cl.c1ccc(-c2ccc3c(Nc4ccc5[nH]ncc5c4)ccnc3c2)nc1

["0%", "25%", "0%", "0%", "1%", "0%"]

Batch request: %Inh per item, same order as input.
1. O=C(Nc1cccc(-c2nn3ccccc3c2-c2ccnc(Nc3cccc(F)c3)n2)c1)c1c(F)ccc(F)c1Cl
2. COc1cc(Nc2nccc(N3CCC(NC(=O)Nc4cccc(C(C)=O)c4)C3)n2)cc(OC)c1OC (centres unmarked)
3. COC(=O)Nc1nc2ccc(Oc3ccc(NC(=O)Nc4cc(C(F)(F)F)ccc4F)cc3)cc2n1C.Cl
4. Cc1ccc(C(=O)N2CC[C@@H](O)C2)cc1-n1c(C)cc(OCc2ccc(F)cc2F)c(Br)c1=O
5. CN1CCN(CCCNc2nccc(-c3c(-c4ccc(F)cc4)nn4cc(C(F)(F)F)ccc34)n2)CC1
6. O=C(NC1CCN(c2ccnc(Nc3ccc(F)cc3)n2)C1)c1cc2ccccc2s1 (centres unmarked)
7. CCS(=O)(=O)c1ccc(OC)c(Nc2nccc(-c3c(-c4cccc(NC(=O)c5c(F)cccc5F)c4)nn4ncccc34)n2)c1
8. Cl.c1ccc(-c2ccc3c(Nc4ccc5[nH]ccc5c4)ccnc3c2)nc1

1. 0%
2. 0%
3. 0%
4. 0%
5. 0%
6. 0%
7. 0%
8. 0%
